- Target: hTSHR (Homo sapiens, UniProt P16473)
- Construct: expressed in transfected cells
- Sequence (P16473 21-764): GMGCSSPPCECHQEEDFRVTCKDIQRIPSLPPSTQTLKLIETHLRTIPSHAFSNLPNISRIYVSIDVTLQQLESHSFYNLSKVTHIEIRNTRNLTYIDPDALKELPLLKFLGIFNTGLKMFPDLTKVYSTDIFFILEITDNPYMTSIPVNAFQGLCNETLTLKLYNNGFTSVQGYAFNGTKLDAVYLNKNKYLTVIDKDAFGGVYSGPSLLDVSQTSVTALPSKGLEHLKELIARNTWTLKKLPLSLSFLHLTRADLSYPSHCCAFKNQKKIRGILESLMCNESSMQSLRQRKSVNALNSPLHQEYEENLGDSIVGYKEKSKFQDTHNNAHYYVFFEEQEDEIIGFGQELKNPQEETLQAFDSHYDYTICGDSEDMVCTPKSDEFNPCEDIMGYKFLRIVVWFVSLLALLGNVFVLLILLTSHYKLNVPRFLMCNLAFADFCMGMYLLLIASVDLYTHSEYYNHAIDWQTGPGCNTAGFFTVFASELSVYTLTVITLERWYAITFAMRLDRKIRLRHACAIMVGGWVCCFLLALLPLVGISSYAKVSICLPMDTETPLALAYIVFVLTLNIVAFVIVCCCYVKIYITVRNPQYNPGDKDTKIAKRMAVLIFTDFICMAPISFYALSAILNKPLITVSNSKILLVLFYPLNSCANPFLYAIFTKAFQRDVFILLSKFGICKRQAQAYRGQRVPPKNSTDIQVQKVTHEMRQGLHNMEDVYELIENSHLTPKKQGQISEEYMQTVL
- Protocol text: hTSHR TR-FRET cAMP Assay (inhibition of M22-stimulated cAMP production)
- Format: cell-based
- Protocol conditions: Expi293F Inducible cells stably expressing hTSHR; cAMP HTRF; stimulated with EC80 of anti-TSHR antibody M22; 15 min compound preincubation, 30 min at 37° C.; read-out: Activity (IC50 bins)
- Procedure: Assays were performed using Expi293F Inducible cells (Invitrogen) stably expressing hTSHR via a pcZeo TetO DNA plasmid. […] Assay-ready aliquots were prepared by harvesting each cell type separately 24-hours post-induction. Cells were pelleted at 4° C., resuspended in Expi293 Expression media+10% DMSO, aliquoted, and kept frozen at −80° C. until ready for use. […]
Property label: IC50

structure_smiles_string=CC(C)(CF)NC(=O)Nc1ccc2c(c1)ncc(=O)n2Cc1ccccc1 property_label=IC50 reported="> 1000 nM"
structure_smiles_string=C[C@H]1Oc2cc(NC(=O)NC(C)(C)C)ccc2N([C@@H](C)c2nccc(C(F)(F)F)n2)C1=O property_label=IC50 reported="> 1000 nM"
structure_smiles_string=O=C(Nc1ccc2c(c1)ncc(=O)n2Cc1ccccc1)NC1CCCC1 property_label=IC50 reported="> 1000 nM"
structure_smiles_string=C[C@H](c1cccc(OCC(F)(F)F)c1)n1c(=O)cnc2cc(NC(=O)NC(C)(C)C)ccc21 property_label=IC50 reported="100 to 1000 nM"
structure_smiles_string=C[C@@H]1Oc2cc(NC(=O)NC(C)(C)C)ccc2N(Cc2cccc(C(F)(F)F)c2)C1=O property_label=IC50 reported="100 to 1000 nM"
structure_smiles_string=O=C(Nc1ccccc1)Nc1ccc2c(c1)CCC(=O)N2Cc1ccccc1 property_label=IC50 reported="> 1000 nM"
structure_smiles_string=C[C@@H](c1cccc(OCC2CCOCC2)c1)n1c(=O)cnc2cc(NC(=O)NC(C)(C)C)ccc21 property_label=IC50 reported="> 1000 nM"
structure_smiles_string=CC(C)(C)NC(=O)Nc1ccc2c(c1)CCC(=O)N2Cc1ccccc1C#N property_label=IC50 reported="< 100 nM"

====

- Target: hTSHR (Homo sapiens)
- Construct: expressed in transfected cells
- Protocol text: hTSHR TR-FRET cAMP Assay (inhibition of M22-stimulated cAMP production)
- Assay type: cell-based
- Protocol conditions: Expi293F Inducible cells stably expressing hTSHR; cAMP HTRF; stimulated with EC80 of anti-TSHR antibody M22; 15 min compound preincubation, 30 min at 37° C.; read-out: Activity (IC50 bins)
Property label: IC50

compound=C[C@H]1Oc2cc(NC(=O)NC3(C(F)(F)F)CCC3)ccc2N(Cc2cccc(C(F)(F)F)n2)C1=O property_label=IC50 reported="0.1 to 1 µM"
compound=Cc1ccc(F)c(CN2C(=O)CCc3cc(NC(=O)NC(C)(C)C)ccc32)c1 property_label=IC50 reported="< 0.1 µM"
compound=CC(C)(C)NC(=O)Nc1ccc2c(c1)CC(=O)N2Cc1ccccc1 property_label=IC50 reported="> 1 µM"
compound="C[C@H]1Oc2cc(NC(=O)NC(C)(C)C)ccc2N(Cc2cccc(C(O)C(F)(F)F)n2)C1=O (stereo partly shown)" property_label=IC50 reported="0.1 to 1 µM"
compound=Cc1cccc([C@H](C)N2C(=O)CCc3cc(NC(=O)NC(C)(C)C)ccc32)c1 property_label=IC50 reported="< 0.1 µM"
compound=C[C@H](c1cccc(C(F)(F)F)c1)N1C(=O)CCc2nc(NC(=O)NC(C)(C)C)ccc21 property_label=IC50 reported="> 1 µM"
compound=C[C@@H](c1cccc(C(F)(F)F)c1)n1c(=O)cnc2cc(NC(=O)NC3(C)CCC3)ccc21 property_label=IC50 reported="0.1 to 1 µM"
compound=C[C@@H](c1cccc(CCC(C)(C)O)c1)n1c(=O)cnc2cc(NC(=O)NC(C)(C)C)ccc21 property_label=IC50 reported="> 1 µM"
compound=CC1(NC(=O)Nc2ccc3c(c2)ncc(=O)n3Cc2ccccc2)CCCC1 property_label=IC50 reported="0.1 to 1 µM"
compound=CC(C)(C)NC(=O)Nc1ccc2c(c1)C[C@H](CC#N)C(=O)N2Cc1ccccc1 property_label=IC50 reported="> 1 µM"
compound="CC(C)(C)NC(=O)Nc1ccc2c(c1)OCC(=O)N2Cc1cccc(C(O)C(F)(F)F)c1 (stereo not shown)" property_label=IC50 reported="0.1 to 1 µM"
compound=C[C@@H](c1cccc(OC(F)(F)F)c1)n1c(=O)cnc2c(CO)c(NC(=O)NC(C)(C)C)ccc21 property_label=IC50 reported="> 1 µM"
compound=CC(C)(O)CNC(=O)Nc1ccc2c(c1)ncc(=O)n2Cc1cccc(OC(F)(F)F)c1 property_label=IC50 reported="> 1 µM"
compound=C[C@H]1Oc2cc(NC(=O)N[C@H]3C[C@H](C(F)(F)F)C3)ccc2N([C@@H](C)c2cccc(OC(F)(F)F)c2)C1=O property_label=IC50 reported="0.1 to 1 µM"
compound="CC(C)(C)NC(=O)Nc1ccc2c(c1)OCC(=O)N2C(c1ccccc1)C(F)(F)F (stereo not shown)" property_label=IC50 reported="0.1 to 1 µM"
compound=COC[C@@H]1Oc2cc(NC(=O)NC(C)(C)C)ccc2N(Cc2ccccc2)C1=O property_label=IC50 reported="> 1 µM"

====

Measured pIC50 of individual entries
- Target: hTSHR (Homo sapiens, UniProt P16473)
- Construct: expressed in transfected cells
- Protocol text: hTSHR TR-FRET cAMP Assay (inhibition of M22-stimulated cAMP production)
- Format: cell-based
- Protocol conditions: Expi293F Inducible cells stably expressing hTSHR; cAMP HTRF; stimulated with EC80 of anti-TSHR antibody M22; 15 min compound preincubation, 30 min at 37° C.; read-out: Activity (IC50 bins)
pIC50: −log10 of the molar value.
Property label: pIC50

compound="C[C@H]1Oc2cc(NC(=O)NC3CC4CC4C3)ccc2N(Cc2cccc(C(F)(F)F)n2)C1=O (stereo partly shown) [Example 230]" reported="6.00 to 7.00"
compound="CC(C)(C)NC(=O)Nc1ccc2c(c1)C[C@@H](CC#N)C(=O)N2Cc1ccccc1 [Example 276]" reported="< 6.00"
compound="C[C@H]1Oc2nc(NC(=O)NC(C)(C)C)c(C#N)cc2N(Cc2cccc(C(F)F)c2)C1=O [Example 371]" reported="> 7.00"
compound="Cc1c(NC(=O)NC(C)(C)C)ccc2c1ncc(=O)n2[C@@H](C)c1cccc(OC(F)(F)F)c1 [Example 209]" reported="6.00 to 7.00"

====

Measured IC50 of individual entries
- Target: hTSHR (Homo sapiens)
- Construct: expressed in transfected cells
- Protocol text: hTSHR TR-FRET cAMP Assay (inhibition of M22-stimulated cAMP production)
- Assay type: cell-based
- Protocol conditions: Expi293F Inducible cells stably expressing hTSHR; cAMP HTRF; stimulated with EC80 of anti-TSHR antibody M22; 15 min compound preincubation, 30 min at 37° C.; read-out: Activity (IC50 bins)
Property label: IC50

compound="CC(C)(C)NC(=O)Nc1ccc2c(c1)OCC(=O)N2Cc1cccc([C@@H](O)C(F)(F)F)c1 [Example 78]" property_label=IC50 reported="100 to 1000 nM"
compound="C[C@H]1Oc2cc(NC(=O)NC(C)(C)C)c(C(F)(F)F)cc2N([C@@H](C)c2ccccc2)C1=O [Example 349]" property_label=IC50 reported="< 100 nM"
compound="CC(c1cccc2ncccc12)n1c(=O)cnc2cc(NC(=O)NC(C)(C)C)ccc21 (centres unmarked) [Example 252]" property_label=IC50 reported="> 1000 nM"
compound="C[C@H]1Oc2cc(NC(=O)NC3(C)CCC3)ccc2N([C@@H](C)c2ccccc2)C1=O [Example 255]" property_label=IC50 reported="< 100 nM"
compound="C[C@@H](c1cccc(OC2CCCCC2)c1)n1c(=O)cnc2cc(NC(=O)NC(C)(C)C)ccc21 [Example 115]" property_label=IC50 reported="100 to 1000 nM"
compound="CC(C)(C)NC(=O)Nc1ccc2c(c1)ncc(=O)n2Cc1ccccc1 [Example 68]" property_label=IC50 reported="< 100 nM"
compound="C[C@@H](c1cc(OC(F)(F)F)ccn1)n1c(=O)cnc2cc(NC(=O)NC(C)(C)C)ccc21 [Example 129]" property_label=IC50 reported="> 1000 nM"
compound="C[C@@H](c1cccc(OC(F)(F)F)c1)n1c(=O)cnc2cc(NC(=O)NCC(C)(C)C)ccc21 [Example 201]" property_label=IC50 reported="100 to 1000 nM"

====

Measured IC50 of individual entries
- Target: hTSHR (Homo sapiens, UniProt P16473)
- Construct: expressed in transfected cells
- Protocol text: hTSHR TR-FRET cAMP Assay (inhibition of M22-stimulated cAMP production)
- Format: cell-based
- Protocol conditions: Expi293F Inducible cells stably expressing hTSHR; cAMP HTRF; stimulated with EC80 of anti-TSHR antibody M22; 15 min compound preincubation, 30 min at 37° C.; read-out: Activity (IC50 bins)
Property label: IC50

structure_smiles_string=C[C@@H](c1cccc(C(F)(F)F)c1)N1C(=O)COc2cc(NC(=O)NC(C)(C)C)ccc21 reported="< 100 nM"
structure_smiles_string=C[C@H]1Oc2cc(NC(=O)NC(C)(C)C)c(F)cc2N(Cc2ccccc2)C1=O reported="100 to 1000 nM"
structure_smiles_string=C[C@@H](c1cccc(C(C)(C)C)c1)n1c(=O)cnc2cc(NC(=O)NC(C)(C)C)ccc21 reported="100 to 1000 nM"
structure_smiles_string=COCC1(NC(=O)Nc2ccc3c(c2)O[C@H](C)C(=O)N3Cc2cccc(C(F)(F)F)n2)CCC1 reported="100 to 1000 nM"

Hey, just so you know, these numbers are from patent US20260365628A1.
